// data source = ChEMBL document CHEMBL1201862

Measured GI50 of individual entries
- System: M14
- protocolSummary: NCI tumour cell line growth inhibition, 48 h
Active and inactive are the calls of the source. Cut-off read from the data, not from the text of the source: active = GI50 up to about 1.1 µM and inactive = higher.

Solved entries (count: 6):
Specify GI50 for Cn1nc2ccc3nccc(NCCNCCCl)c3c2n1 , system M14.
> 100 µM (inactive)

Specify GI50 for Cc1nc(N)c(N2CCN(C(=O)O)CC2)c(O)n1 , system M14.
> 100 µM (inactive)

Specify GI50 for COc1c(Cl)nc2ccccc2c1N=[N+]=[N-] , system M14.
> 100 µM (inactive)

Specify GI50 for COc1cc2cccc(/N=C\c3cccc(OC)c3OC(C)C)c2cc1OC , system M14.
17.9 µM (inactive)

Specify GI50 for [N-]=[N+]=Nc1c(N2CCOCC2)c(Cl)nc2ccccc12 , system M14.
37.4 µM (inactive)

Specify GI50 for COc1cc(C(=O)C2C(=O)c3ccccc3C2C2(O)c3ccccc3CC2C(O)c2cc(OC)c(OC)c(OC)c2)cc(OC)c1OC (stereo not given) , system M14.
> 100 µM (inactive)

---
Specify GI50 for Cc1ccccc1N/C(=C(/C(Cl)=C(Cl)Cl)[N+](=O)[O-])n1nnc2ccccc21 , system M14.
24.5 µM (inactive)

Specify GI50 for CCCCCCCCCCCCCCCCCCNc1ccn(C2OC(COP(=O)(O)OCC3OC(n4cc(C)c(=O)[nH]c4=O)CC3F)C(O)C2O)c(=O)n1 (stereo not given) , system M14.
8.17 µM (inactive)

Specify GI50 for Cc1cn(C2CC(O)C(COC(=O)NCCC(F)(F)C(F)(F)C(F)(F)C(F)(F)F)O2)c(=O)[nH]c1=O (stereo not given) , system M14.
> 100 µM (inactive)

Specify GI50 for CC[C@@]1(O)C(=O)OCc2c1cc1n(c2=O)Cc2c-1nc1ccccc1c2Cl , system M14.
< 0.0133 µM (active)
